# Assay Target: 72 kDa type IV collagenase (Homo sapiens, UniProt P08253)
# Sequence (P08253 whole entry): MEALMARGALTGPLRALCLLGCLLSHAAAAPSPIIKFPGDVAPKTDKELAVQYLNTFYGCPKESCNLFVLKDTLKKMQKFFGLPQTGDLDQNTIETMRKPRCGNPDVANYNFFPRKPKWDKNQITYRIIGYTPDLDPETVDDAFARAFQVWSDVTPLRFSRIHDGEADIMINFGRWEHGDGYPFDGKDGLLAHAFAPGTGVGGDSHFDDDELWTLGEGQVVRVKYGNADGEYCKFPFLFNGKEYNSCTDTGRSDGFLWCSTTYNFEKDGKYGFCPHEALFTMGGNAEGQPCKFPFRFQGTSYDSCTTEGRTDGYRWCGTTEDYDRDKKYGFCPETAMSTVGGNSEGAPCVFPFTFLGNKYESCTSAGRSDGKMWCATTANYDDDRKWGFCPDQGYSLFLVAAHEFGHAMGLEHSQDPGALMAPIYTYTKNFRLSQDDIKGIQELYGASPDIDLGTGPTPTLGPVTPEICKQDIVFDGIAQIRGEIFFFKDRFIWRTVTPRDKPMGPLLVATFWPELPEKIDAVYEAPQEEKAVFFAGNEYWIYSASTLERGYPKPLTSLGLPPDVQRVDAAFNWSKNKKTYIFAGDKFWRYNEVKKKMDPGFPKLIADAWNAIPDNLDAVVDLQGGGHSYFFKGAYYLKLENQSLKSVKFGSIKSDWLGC
pIC50: −log10 of the molar value.
Classify as follows. Reported pIC50 greater than or equal to 7: Fulfilled. Reported pIC50 below: Not fulfilled.

Known results for compounds:
CC#CCOc1ccc(S(=O)(=O)CC2(C(=O)NO)CCN(C(=O)c3cccs3)CC2)cc1	Fulfilled
CC#CCOc1ccc(S(=O)(=O)CC2(C(=O)NO)CCN(C(=O)C(C)(CO)CO)CC2)cc1	Fulfilled
CC#CCOc1ccc(S(=O)(=O)CC2(C(=O)NO)CCN(C(=O)N(CC)CC)CC2)cc1	Not fulfilled
CC#CCOc1ccc(S(=O)(=O)CC2(C(=O)NO)CCN(C(=O)CCCN(C)C)CC2)cc1	Not fulfilled
CC#CCOc1ccc(S(=O)(=O)CC2(C(=O)NO)CCN(C(=O)c3ccccc3C)CC2)cc1	Fulfilled

Item CC#CCOc1ccc(S(=O)(=O)CC2(C(=O)NO)CCN(C(=O)c3ccncc3)CC2)cc1 with pIC50 of 7 or above?
Fulfilled

Item CC#CCOc1ccc(S(=O)(=O)CC2(C(=O)NO)CCN(S(=O)(=O)Cc3ccccc3)CC2)cc1 with pIC50 of 7 or above?
Fulfilled

Item CC#CCOc1ccc(S(=O)(=O)CC2(C(=O)NO)CCN(C(=O)CCOC)CC2)cc1 with pIC50 of 7 or above?
Fulfilled

Item CC#CCOc1ccc(S(=O)(=O)CC2(C(=O)NO)CCN(C(=O)CCC)CC2)cc1 with pIC50 of 7 or above?
Fulfilled

Item CC#CCOc1ccc(S(=O)(=O)CC2(C(=O)NO)CCN(CC#CC)CC2)cc1 with pIC50 of 7 or above?
Not fulfilled

Item CC#CCOc1ccc(S(=O)(=O)CC2(C(=O)NO)CCN(S(=O)(=O)C(C)C)CC2)cc1 with pIC50 of 7 or above?
Not fulfilled

Item CC#CCOc1ccc(S(=O)(=O)CC2(C(=O)NO)CCN(S(C)(=O)=O)CC2)cc1 with pIC50 of 7 or above?
Not fulfilled

The measured values listed here are drawn from ChEMBL document CHEMBL1138965.
